assay_system: BRD4(BD1) (Homo sapiens (Human), UniProt O60885)
measurement_notes: BRD4 AlphaLisa binding assay
condition_summary: biotinylated H4-tetraacetyl peptide
observation_type: IC50 (nM)

{"compound": "Cn1cc(-c2ccc(C(=O)N3CC(F)C3)cc2)c2cc[nH]c2c1=O [Example 27]", "reading_unit": "nM", "observed_value": 84}
{"compound": "CN(CC#N)C(=O)c1ccc(-c2cn(C)c(=O)c3[nH]ccc23)cc1 [Example 38]", "reading_unit": "nM", "observed_value": 200}
{"compound": "CC1Nc2cc(-c3cn(C)c(=O)c4[nH]ccc34)ccc2NC1=O (centres unmarked) [Example 10]", "reading_unit": "nM", "observed_value": 110}

[a] Cn1cc(-c2ccc3c(c2)N2C(=O)CCC2C(=O)N3)c2cc[nH]c2c1=O (centres unmarked) [Example 9]
[b] Cn1cc(-c2ccc3c(c2)N2CCCC2CC(=O)N3)c2cc[nH]c2c1=O (centres unmarked) [Example 15]
Hey, between a and b which has a smaller measured IC50? Respond using the label that marks the chosen record. b
(b: 81 nM, a: 310 nM)

[A] Cn1cc(-c2cccc(C#N)c2)c2cc[nH]c2c1=O [Example 23]
[B] Cn1cc(-c2ccccc2)c2cc[nH]c2c1=O [Example 1]
Hey, between A and B which has a smaller measured IC50? Respond using the label that marks the chosen record. A

[1] CC1CC(=O)Nc2ccc(-c3cn(C)c(=O)c4[nH]ccc34)cc2N1 (centres unmarked) [Example 13]
[2] CN(C(=O)c1ccc(-c2cn(C)c(=O)c3[nH]ccc23)cc1)c1ccccc1 [Example 36]
Hey, between 1 and 2 which has a smaller measured IC50? Respond using the label that marks the chosen record. 1

[a] Cn1cc(-c2ccc3c(c2)CCCN3C(=O)OC(C)(C)C)c2cc[nH]c2c1=O [Example 4]
[b] Cn1cc(-c2cccc(C(N)=O)c2)c2cc[nH]c2c1=O [Example 21]
Of a and b , which one carries the higher reported IC50? Respond using the label that marks the chosen record. b
(b: 180 nM, a: 110 nM)

[I] CC(C)c1nc2cc(-c3cn(C)c(=O)c4[nH]ccc34)ccc2[nH]c1=O [Example 14]
[II] Cn1cc(-c2ccc(CO)cc2)c2cc[nH]c2c1=O [Example 25]
Hey, between I and II which has a smaller measured IC50? Respond using the label that marks the chosen record. I

[A] Cn1cc(-c2ccc(C(=O)N3CCCC3)cc2)c2cc[nH]c2c1=O [Example 29]
[B] Cn1cc(-c2ccc(C(=O)Nc3cccnc3)cc2)c2cc[nH]c2c1=O [Example 34]
[C] CC1CCN(C(=O)c2ccc(-c3cn(C)c(=O)c4[nH]ccc34)cc2)CC1 [Example 31]
List these items ordered by IC50, big to small. A complete answer lists every label in the requested sequence. A, C, B

[A] Cn1cc(-c2ccc(C(=O)N3CCC(C(N)=O)CC3)cc2)c2cc[nH]c2c1=O [Example 33]
[B] Cn1cc(-c2ccc3c(c2)NC(c2cccs2)CC(=O)N3)c2cc[nH]c2c1=O (centres unmarked) [Example 17]
Of A and B , which one carries the higher reported IC50? Respond using the label that marks the chosen record. A
(A: 260 nM, B: 58 nM)

[a] Cn1cc(-c2ccc3c(c2)CC(=O)N3)c2cc[nH]c2c1=O [Example 2]
[b] CC(=O)N1CCN(C(=O)c2ccc(-c3cn(C)c(=O)c4[nH]ccc34)cc2)CC1 [Example 32]
Of a and b , which one carries the higher reported IC50? Respond using the label that marks the chosen record. b
